Where do the numbers come from? From patent US20230365542A1.

Recorded pKi for the following compounds
# tested_on: 5-HT2BR (Homo sapiens, UniProt P41595)
# Construct: expressed in transfected cells; host or cells: Flp-In 293 T-Rex (tetracycline inducible)
# Sequence (P41595 whole entry): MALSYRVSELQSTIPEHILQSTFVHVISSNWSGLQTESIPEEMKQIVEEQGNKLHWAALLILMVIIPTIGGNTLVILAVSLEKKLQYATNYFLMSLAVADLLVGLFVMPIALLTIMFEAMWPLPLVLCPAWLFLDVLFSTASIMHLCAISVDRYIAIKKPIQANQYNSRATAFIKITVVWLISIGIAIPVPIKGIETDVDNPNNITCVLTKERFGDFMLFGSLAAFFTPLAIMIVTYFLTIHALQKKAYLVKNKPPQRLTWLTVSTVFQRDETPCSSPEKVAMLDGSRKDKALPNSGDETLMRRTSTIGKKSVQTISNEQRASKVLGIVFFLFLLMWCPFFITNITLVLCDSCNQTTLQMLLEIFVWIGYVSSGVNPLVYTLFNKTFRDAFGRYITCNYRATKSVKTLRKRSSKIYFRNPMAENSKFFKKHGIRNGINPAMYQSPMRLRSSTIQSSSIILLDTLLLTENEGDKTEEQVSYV
# assay_info: 5-HT2BR binding affinity (Ki), Table 8
# protocol_conditions: read-out: 5-HT2BR Ki
# reply with the number alone; pKi is -log10 of concentration in mol/L

Task: Looking for the measured pKi of `C[C@@H]1C=C(c2c[nH]c3ncccc23)CN(CC2(C)COC2)C1` , can you help?
Output: 5.48

Task: Looking for the measured pKi of `C[C@@H]1C=C(c2c[nH]c3ncccc23)CN(C)C1` , can you help?
Output: 6.36

Task: Looking for the measured pKi of CC1C=C(c2cnn(C)c2)CN(CC2(C)COC2)C1 (racemic) , can you help?
Output: 5.41

Task: Looking for the measured pKi of `C[C@H]1C=C(c2c[nH]c3ncccc23)CN(CC2(C)COC2)C1` , can you help?
Output: 5.23

Further cases:
Task: Looking for the measured pKi of `C[C@H]1C=C(c2c[nH]c3ncccc23)CN(CC2CC2)C1` , can you help?
Output: 5.67
